# Tested on: Plasmodium falciparum
# test-method-notes: GSK_TCMDC: Inhibition of Plasmodium falciparum 3D7 in whole red blood cells, using parasite LDH activity as an index of growth. Test compounds present at 2uM
# Assay type: functional

- structure: "COc1ccccc1CN1CCC(NC(=O)c2ccc(-c3cccc(Cl)c3)s2)CC1.O=C(O)C(F)(F)F"
  target-system: "Plasmodium falciparum"
  Inhibition, %: 84
- structure: "c1ccn2c(-c3ncnc(NCc4ccc5c(c4)CCO5)n3)cnc2c1"
  target-system: "Plasmodium falciparum"
  Inhibition, %: 86
- structure: "COc1cc(OC)cc(-c2nn(-c3ccc([N+](=O)[O-])cc3C#N)c(=S)n2Cc2ccco2)c1"
  target-system: "Plasmodium falciparum"
  Inhibition, %: 100
- structure: "CN(CCN1CCCC1)c1nc2cc(-n3cnc4cc(-c5ccc(Cl)cc5)sc4c3=O)ccc2[nH]1.CS(=O)(=O)O"
  target-system: "Plasmodium falciparum"
  Inhibition, %: 93
- structure: "COc1cccc(C2CCN(CCN3CCC(NC(=O)c4ccc(-c5ccc(C#N)cc5)cc4)CC3)CC2)c1"
  target-system: "Plasmodium falciparum"
  Inhibition, %: 98
